This section presents compounds with their documented fold induction at 0.3 µM values.
# System: SREBP
# method: SREBP induction in human liver (HepG2) cells, RT-PCR
# Type: cell-based
# condition description: human, HepG2 cells (human liver carcinoma); 300 nM; HepG2; Table 5; read-out: Safety SREBP mRNA fold induction at 300 nM
Provide a numeric answer; units are not to be included.

Use these answered entries as a reference point.
> print(dat)
                                   compound  recorded.measurement
1  CCN(c1cc(C(C)(C)C)cc(C(C)(C)C)c1)c1ccc(C(=O)O)cn1 [drawing 65]                  2.62
2  CC(C)(C)c1cc(N(CC2CC2)c2ccc(C(=O)O)cn2)cc(C(C)(C)C)c1 [drawing 78]                  2.48

Field fold induction at 0.3 µM (entry CC(C)(C)c1cc(N(CC2CC2)c2ncc(C(=O)O)cn2)cc(C(C)(C)C)c1 ) reads 1.46

Field fold induction at 0.3 µM (entry CCN(c1cc(C(F)(F)F)cc(C(F)(F)F)c1)c1ccc(C(=O)O)cn1 [drawing 79] ) reads 0.96

Field fold induction at 0.3 µM (entry CC(C)CN(c1cc(C(C)(C)C)cc(C(C)(C)C)c1)c1ccc(C(=O)O)cn1 [drawing 82] ) reads 1.49

Field fold induction at 0.3 µM (entry CCN(c1cc(C(C)(C)C)cc(C(C)(C)C)c1)c1ncc(C(=O)O)cn1 [drawing 66] ) reads 1.38

Field fold induction at 0.3 µM (entry CCN(c1ccc(C(=O)O)cc1)c1cc(C(C)C)c(OCC(C)C)cc1C [drawing 80] ) reads 1.45

Field fold induction at 0.3 µM (entry CC(C)N(c1cc(C(C)(C)C)cc(C(C)(C)C)c1)c1ncc(C(=O)O)cn1 ) reads 2.46

Field fold induction at 0.3 µM (entry C=C(c1ccc(C(=O)O)cc1)c1cc(C(C)C)c(OC(C)C)cc1C [drawing 74] ) reads 1.08

* * *

# Test system: inducible nitric oxide synthase (iNOS)
# method: iNOS suppression / NO assay in LPS-stimulated macrophages or RAW264.7 cells (Griess reaction)
# Type: cell-based, mouse
# condition description: Mus musculus, RAW264.7; 125 nM; Control 100; lower numbers indicate higher efficacy; read-out: NO Assay
measured endpoint: activity at 0.125 µM (%)
Quick reminder: number only, in %, skip the unit.

Use these answered entries as a reference point.
> print(dat)
                               smiles.input     measured.endpoint  recorded.measurement
1  CCCN(c1cc(C(C)(C)C)cc(C(C)(C)C)c1)c1ccc(C(=O)O)cn1  activity at 0.125 µM                  94.5
2  C=C(c1ccc(C(=O)O)cc1)c1cc2c(cc1C)C(C)(C)CCC2(C)C  activity at 0.125 µM                    78
3  CCCCN(c1cc(C(C)(C)C)cc(C(C)(C)C)c1)c1ccc(C(=O)O)cn1  activity at 0.125 µM                  45.6

Next up:
Field activity at 0.125 µM (entry CC(C)CN(c1cc(C(C)(C)C)cc(C(C)(C)C)c1)c1ccc(C(=O)O)cn1 ) reads 52

Data provenance: patent US20220089540A1
